For each of the molecules below, state its MIC.
# Test system: E. faecium^VRE
# EXPERIMENT_SUMMARY: MIC by broth microdilution (aerobic pathogens), test strain 11
# Format: cell-based, Vancomycin resistant Enterococcus faecium
# EXPERIMENTAL_SETUP: Enterococcus faecium; test strain 11, E. faecium^VRE (vancomycin resistant); read-out: MIC
Numbers only, in µg/mL.

Sample records with MIC:
Sample C/C=C(\NC(=O)c1csc(-c2csc(-c3ccc4c(n3)-c3csc(n3)[C@H]([C@@H](C)O)NC(=O)c3csc(n3)[C@H](C(C)C)NC(=O)c3csc(n3)/C(=C/C)NC(=O)[C@H]([C@@H](C)O)NC(=O)c3csc-4n3)n2)n1)C(=O)NCCN1CCN(C(C)C)CC1 — what was its MIC?
1

// lookup MIC for C/C=C(\NC(=O)c1csc(-c2csc(-c3ccc4c(n3)-c3csc(n3)[C@H]([C@@H](C)O)NC(=O)c3csc(n3)[C@H](C(C)C)NC(=O)c3csc(n3)/C(=C/C)NC(=O)[C@H]([C@@H](C)O)NC(=O)c3csc-4n3)n2)n1)C(=O)NCCn1c([N+](=O)[O-])cnc1C
0.25

GET /values?readout=MIC&item= C/C=C1\NC(=O)[C@H]([C@@H](C)O)NC(=O)c2csc(n2)-c2ccc(-c3nc(-c4nc(C(=O)NC5(C(=O)NCCCN6C(=O)CNC6=O)CC5)cs4)cs3)nc2-c2csc(n2)[C@H]([C@@H](C)O)NC(=O)c2csc(n2)[C@H](C(C)C)NC(=O)c2csc1n2
1

Which MIC value is on record for C/C=C1\NC(=O)[C@H]([C@@H](C)O)NC(=O)c2csc(n2)-c2ccc(-c3nc(-c4nc(C(=O)NC5(C(=O)NCCn6cnc([N+](=O)[O-])n6)CC5)cs4)cs3)nc2-c2csc(n2)[C@H]([C@@H](C)O)NC(=O)c2csc(n2)[C@H](C(C)C)NC(=O)c2csc1n2 ?
1

Looking for the measured MIC of C/C=C(\NC(=O)c1csc(-c2csc(-c3ccc4c(n3)-c3csc(n3)[C@H]([C@@H](C)O)NC(=O)c3csc(n3)[C@H](C(C)C)NC(=O)c3csc(n3)/C(=C/C)NC(=O)[C@H]([C@@H](C)O)NC(=O)c3csc-4n3)n2)n1)C(=O)NCCn1cnc([N+](=O)[O-])n1 , can you help?
1

What MIC value was documented for this molecule, C/C=C1\NC(=O)[C@H]([C@@H](C)O)NC(=O)c2csc(n2)-c2ccc(-c3nc(-c4nc(C(=O)NC5(C(=O)NCCCN6CCOCC6)CC5)cs4)cs3)nc2-c2csc(n2)[C@H]([C@@H](C)O)NC(=O)c2csc(n2)[C@H](C(C)C)NC(=O)c2csc1n2 ?
1

---
Which MIC value is on record for CC(=O)NC[C@H]1CN(c2ccc(N3CCOCC3)c(F)c2)C(=O)O1 [Lin, Linezolid, reference compound] ?
2

====

# Tested on: S. epidermis
# EXPERIMENT_SUMMARY: MIC by broth microdilution (aerobic pathogens), test strain 5
# Type: cell-based
# EXPERIMENTAL_SETUP: Staphylococcus epidermidis; test strain 5, S. epidermis; read-out: MIC
REPORTED_ENDPOINT: MIC (µg/mL)
Answers are plain numbers, in µg/mL.

Suppose we examine the compound C/C=C(\NC(=O)c1csc(-c2csc(-c3ccc4c(n3)-c3csc(n3)[C@H]([C@@H](C)O)NC(=O)c3csc(n3)[C@H](C(C)C)NC(=O)c3csc(n3)/C(=C/C)NC(=O)[C@H]([C@@H](C)O)NC(=O)c3csc-4n3)n2)n1)C(=O)NCCN1CCN(C(C)C)CC1 ; what MIC value has been reported?
0.5

Bench note: what MIC did C/C=C1\NC(=O)[C@H]([C@@H](C)O)NC(=O)c2csc(n2)-c2ccc(-c3nc(-c4nc(C(=O)NC5(C(=O)NCCN6CCN(S(N)(=O)=O)CC6)CC5)cs4)cs3)nc2-c2csc(n2)[C@H]([C@@H](C)O)NC(=O)c2csc(n2)[C@H](C(C)C)NC(=O)c2csc1n2 show?
0.25

# query: MIC of entry C/C=C1\NC(=O)[C@H]([C@@H](C)O)NC(=O)c2csc(n2)-c2ccc(-c3nc(-c4nc(C(=O)NC5(C(=O)NCCN6CCN(CCCC#N)CC6)CC5)cs4)cs3)nc2-c2csc(n2)[C@H]([C@@H](C)O)NC(=O)c2csc(n2)[C@H](C(C)C)NC(=O)c2csc1n2
0.25

***
What does the data say about its MIC? Entry: C/C=C1\NC(=O)[C@H]([C@@H](C)O)NC(=O)c2csc(n2)-c2ccc(-c3nc(-c4nc(C(=O)NC5(C(=O)NCC6OB(O)c7ccccc76)CC5)cs4)cs3)nc2-c2csc(n2)[C@H]([C@@H](C)O)NC(=O)c2csc(n2)[C@H](C(C)C)NC(=O)c2csc1n2 (stereo partly shown)
0.5
